# % of lysis of ASC1 cells (ADCC with NK cells, LDH release) at 50 ng/ml antibody per entry
Target: T1, AMHRII receptor expressed on cells (cov434-AMHRII, Asc 1, META 2815) (human, UniProt Q16671 18-573)
T1 sequence (looked up): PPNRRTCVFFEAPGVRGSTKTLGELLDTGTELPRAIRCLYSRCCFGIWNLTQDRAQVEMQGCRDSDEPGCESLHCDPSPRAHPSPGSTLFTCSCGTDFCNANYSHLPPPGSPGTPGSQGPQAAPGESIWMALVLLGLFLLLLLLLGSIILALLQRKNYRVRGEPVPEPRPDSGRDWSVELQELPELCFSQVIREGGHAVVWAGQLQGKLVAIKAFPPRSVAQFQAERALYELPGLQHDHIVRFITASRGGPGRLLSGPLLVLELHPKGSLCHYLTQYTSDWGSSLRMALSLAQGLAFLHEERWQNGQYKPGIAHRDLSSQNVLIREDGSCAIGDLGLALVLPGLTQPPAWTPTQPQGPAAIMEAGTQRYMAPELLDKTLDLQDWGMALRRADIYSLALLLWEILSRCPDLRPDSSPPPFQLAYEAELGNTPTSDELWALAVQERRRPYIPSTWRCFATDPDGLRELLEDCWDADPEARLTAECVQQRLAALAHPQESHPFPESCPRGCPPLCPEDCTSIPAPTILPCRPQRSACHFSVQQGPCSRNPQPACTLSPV
Assay: cell-based or functional assay
OBSERVED_PROPERTY: % of lysis of ASC1 cells (ADCC with NK cells, LDH release) at 50 ng/ml antibody (%)

# BINDER, MEASURED_RESULT
rows = [
    ("mutated humanized 12G4 antibody 3C-23 produced in YB2/0 (antibody, human IgG1, kappa, V domains shown, Chains without leader; Mutations VH-Q3R, VL-I177T/S179P; also called 3C_23 YB2/0; R901 3C23) VH: QVRLVQSGAEVKKPGASVKVSCKASGYTFTSYHIHWVRQAPGQRLEWMGWIYPGDDSTKYSQKFQGRVTITRDTSASTAYMELSSLRSEDTAVYYCTRGDRFAYWGQGTLVTVSS VL: DIQMTQSPSTLSASVGDRVTITCRASSSVRYIAWYQQKPGKAPKLLTYPTSSLESGVPSRFSGSGSGTEFTLTISSLQPDDFATYYCLQWSSYPWTFGGGTKVEIKR", 46),
    ("mutated humanized 12G4 antibody 3C-23K produced in YB2/0 (antibody, human IgG1, kappa, V domains shown, Chains without leader; also called 3C_23K YB2/0; 3C-23K-YB2/0) VH: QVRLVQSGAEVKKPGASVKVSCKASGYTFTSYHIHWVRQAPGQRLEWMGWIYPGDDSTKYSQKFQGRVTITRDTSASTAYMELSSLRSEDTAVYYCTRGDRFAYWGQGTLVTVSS VL: DIQMTQSPSTLSASVGDRVTITCRASSSVRYIAWYQQKPGKAPKLLTYPTSSLKSGVPSRFSGSGSGTEFTLTISSLQPDDFATYYCLQWSSYPWTFGGGTKVEIKR", 67),
    ("mutated humanized 12G4 antibody 6B-78 produced in YB2/0 (antibody, human IgG1, kappa, V domains shown, Chains without leader; Mutation VL-E184K; also called 6B_78 YB2/0; R901 6B78) VH: QVQLVQSGAEVKKPGASVKVSCKASGYTFTSYHIHWVRQAPGQRLEWMGWIYPGDDSTKYSQKFQGRVTITRDTSASTAYMELSSLRSEDTAVYYCTRGDRFAYWGQGTLVTVSS VL: DIQMTQSPSTLSASVGDRVTITCRASSSVRYIAWYQQKPGKAPKLLIYSTSSLKSGVPSRFSGSGSGTEFTLTISSLQPDDFATYYCLQWSSYPWTFGGGTKVEIKR", 42),
    ("unmutated humanized 12G4 monoclonal antibody (antibody, human IgG1, kappa, V domains shown, Variable regions without leader joined to the constant regions; also called huLFB112; 632 07 107 Anti AMHRII hum 1st) VH: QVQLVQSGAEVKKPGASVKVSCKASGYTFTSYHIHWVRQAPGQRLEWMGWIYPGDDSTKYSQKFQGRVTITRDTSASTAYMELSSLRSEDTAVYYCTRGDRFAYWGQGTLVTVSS VL: DIQMTQSPSTLSASVGDRVTITCRASSSVRYIAWYQQKPGKAPKLLIYSTSSLESGVPSRFSGSGSGTEFTLTISSLQPDDFATYYCLQWSSYPWTFGGGTKVEIKR", 24),
]
